- Target under test: CYP3A5 (Homo sapiens, UniProt P20815)
- Construct: purchased Corning; host or cells: baculovirus-transfected insect cell microsomes (Supersomes)
- Sequence (P20815 whole entry): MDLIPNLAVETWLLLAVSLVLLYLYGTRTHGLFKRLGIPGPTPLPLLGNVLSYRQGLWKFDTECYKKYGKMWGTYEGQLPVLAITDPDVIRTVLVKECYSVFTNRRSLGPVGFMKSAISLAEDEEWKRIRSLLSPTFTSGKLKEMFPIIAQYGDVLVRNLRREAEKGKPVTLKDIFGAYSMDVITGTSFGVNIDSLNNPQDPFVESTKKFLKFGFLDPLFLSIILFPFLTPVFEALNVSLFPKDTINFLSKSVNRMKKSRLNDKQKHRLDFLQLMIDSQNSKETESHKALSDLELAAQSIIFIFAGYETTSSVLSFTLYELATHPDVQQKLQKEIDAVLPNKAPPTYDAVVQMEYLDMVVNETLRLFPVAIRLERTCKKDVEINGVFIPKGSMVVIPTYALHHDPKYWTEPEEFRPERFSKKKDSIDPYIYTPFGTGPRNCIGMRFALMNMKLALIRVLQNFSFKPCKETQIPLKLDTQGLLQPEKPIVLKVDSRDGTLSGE
- Method: Monooxygenases activity screening, CYP3A5
- Type: in vitro ADME
- Parameters: key: +, detected; –: −, not detected
- Measurement context: 25 μM 4F-MDMB-BINACA, 50 pmol/ml enzyme, 30 min, 37°C, duplicate
Readout: Detection of metabolite in incubation with CYP3A5

Examples from the recorded data:
Compound: COC(=O)[C@@H](NC(=O)c1nn(CCCCO)c2ccccc12)C(C)(C)C
Recorded measurement: +
//
Compound: O=C(O)c1nn(CCCCF)c2ccccc12
Recorded measurement: –
//
Compound: CC(C)(C)C(NC(=O)c1nn(CCCCF)c2ccccc12)C(=O)O (centres unmarked)
Recorded measurement: –
//
Compound: COC(=O)[C@@H](NC(=O)c1nn(CCCCF)c2ccccc12)C(C)(C)CO
Recorded measurement: +

Kindly note the recorded Detection of metabolite in incubation with CYP3A5 for `COC(=O)[C@@H](NC(=O)c1n[nH]c2ccccc12)C(C)(C)C` , which is +

###

- Test system: zebrafish larvae
- Method: Zebrafish larvae exposure, metabolite identification by LC-HRMS/MS
- Measurement context: 100 μM in medium, 24 h
Readout: Number of phase I metabolites detected, Zebrafish larvae
Answer with a number only.

Compound: CCCCC(C(=O)c1ccc(F)cc1)N1CCCC1 (stereo not drawn) [Metabolite 4F-PHP, 4-fluoro-alpha-pyrrolidinohexiophenone]
Recorded measurement: 8
--
Compound: CCC(=O)n1cc2c3c(cccc31)C1=C[C@@H](C(=O)N(CC)CC)CN(C)[C@@H]1C2 [Metabolite 1P-LSD, 1-propionyl-d-lysergic acid diethylamide]
Recorded measurement: 22
--
Compound: CCCC(NCC)C(=O)c1ccc2c(c1)OCO2 (stereo not shown)
Recorded measurement: 5

// COc1ccccc1CNC(C)Cc1ccc(OC)c(OC)c1 (stereo not shown) : Number of phase I metabolites detected, Zebrafish larvae value = 9

###

Entries and their Absolute peak area, Zebrafish larvae [25 μM] values follow.
- Test system: zebrafish larvae
- Method: Zebrafish larvae exposure, metabolite identification by LC-HRMS/MS
- Measurement context: 25 μM 4F-MDMB-BINACA in medium, larvae 4 dpf, 24 h, larvae extract, one replicate of n = 3; n.d. = not detected
Enter the number alone.

Some molecules with known Absolute peak area, Zebrafish larvae [25 μM] results, for comparison:
Molecule: COC(=O)[C@@H](NC(=O)c1n[nH]c2ccccc12)C(C)(C)C
Target under test: zebrafish larvae
Recorded measurement: 7.45E+06
//
Molecule: CC(C)(C)C(NC(=O)c1nn(CCCCF)c2ccccc12)C(=O)O (centres unmarked)
Target under test: zebrafish larvae
Recorded measurement: 1.73E+07
//
Molecule: COC(=O)[C@@H](NC(=O)c1nn(CCCCF)c2ccccc12)C(C)(C)CO
Target under test: zebrafish larvae
Recorded measurement: 5.98E+06
//
Molecule: CC1(CO)COC(=O)[C@H]1NC(=O)c1nn(CCCCF)c2ccccc12 (some centres unmarked)
Target under test: zebrafish larvae
Recorded measurement: 1.68E+06

Record summary for CC1(C)COC(=O)C1NC(=O)c1nn(CCCC(=O)O)c2ccccc12 (centres unmarked) : reported Absolute peak area, Zebrafish larvae [25 μM] = 2.53E+06

###

- Test system: zebrafish larvae
- Method: Zebrafish larvae exposure, metabolite identification by LC-HRMS/MS
- Measurement context: 100 μM in medium, 24 h
Readout: Number of phase II metabolites detected, Zebrafish larvae
Keep it simple and answer with nothing but the number.

Consider the worked cases shown below.
Molecule: COc1ccccc1CNC(C)Cc1ccc(OC)c(OC)c1 (stereo not shown) [3,4-DMA-NBOMe]
Recorded measurement: 7
--
Molecule: CCCC(NCC)C(=O)c1ccc2c(c1)OCO2 (stereo not shown) [Ephylone, N-ethylnorpentylone]
Recorded measurement: 4
--
Molecule: CCCCC(C(=O)c1ccc(F)cc1)N1CCCC1 (stereo not drawn) [Metabolite 4F-PHP, 4-fluoro-alpha-pyrrolidinohexiophenone]
Recorded measurement: 3

Let's switch to this molecule now.
Record CCC(=O)n1cc2c3c(cccc31)C1=C[C@@H](C(=O)N(CC)CC)CN(C)[C@@H]1C2 [Metabolite 1P-LSD, 1-propionyl-d-lysergic acid diethylamide] , field Number of phase II metabolites detected, Zebrafish larvae: 3

###

- System: HepaRG cells
- Method: Incubations with HepaRG cells, metabolite identification by LC-HRMS/MS
- Format: in vitro ADME, human
- Measurement context: 250 μM, 24 h
Class yes (1): Number of phase I metabolites detected, HepaRG [250 μM] at least 10. Class no (0): Number of phase I metabolites detected, HepaRG [250 μM] below 10.

Recorded results for 3 compounds are shown here.
Compound: COC(=O)C(NC(=O)c1nn(CCCCF)c2ccccc12)C(C)(C)C (centres unmarked)
Group: yes (1)

Compound: CCCCC(C(=O)c1ccc(F)cc1)N1CCCC1 (stereo not drawn) [Metabolite 4F-PHP, 4-fluoro-alpha-pyrrolidinohexiophenone]
Group: no (0)

Compound: CCCC(NCC)C(=O)c1ccc2c(c1)OCO2 (centres unmarked)
Group: no (0)

Consider the record given below.
### Prompt Given CCC(=O)n1cc2c3c(cccc31)C1=C[C@@H](C(=O)N(CC)CC)CN(C)[C@@H]1C2 [Metabolite 1P-LSD, 1-propionyl-d-lysergic acid diethylamide] , state whether its Number of phase I metabolites detected, HepaRG [250 μM] is at least 10.
### Response yes (1)

###

- Tested on: HepaRG cells
- Method: Incubations with HepaRG cells, metabolite identification by LC-HRMS/MS
- Type: in vitro ADME, human
- Measurement context: 250 μM parent NPS, 24 h, cell culture medium, one replicate of n = 3; n.d. = not detected
Readout: Absolute peak area, HepaRG [250 μM]
Hey, just send me the number, nothing else.

Compound: CCCC(NCC)C(=O)c1ccc(O)c(O)c1 (stereo not shown)
Absolute peak area, HepaRG [250 μM]: 6.37E+05

Recorded result, `CC(C)(C)[C@H](NC(=O)c1nn(CCCCO)c2ccccc12)C(=O)O` , Absolute peak area, HepaRG [250 μM]: 1.34E+07

Short answer for CCCCC(C(=O)c1ccc(F)cc1)[N+]1([O-])CCCC1 (stereo not shown) : Absolute peak area, HepaRG [250 μM] was 1.47E+05

Sure, the documented Absolute peak area, HepaRG [250 μM] for CC(O)CCC(C(=O)c1ccc(F)cc1)N1CCCC1 (stereo not shown) is 1.07E+07

For this compound ( `COC(=O)[C@@H](NC(=O)c1nn(CCCC(=O)O)c2ccccc12)C(C)(C)C` ), measured Absolute peak area, HepaRG [250 μM] is 8.00E+06

CCCC(NCC)C(=O)c1ccc2c(c1)OCO2 (stereo not shown) has a reported Absolute peak area, HepaRG [250 μM] of 3.94E+09

Absolute peak area, HepaRG [250 μM] in this record for `CN1C[C@H](C(=O)O)C=C2c3cccc4[nH]cc(c34)C[C@H]21` : 1.39E+07

Lab note: `CC(C)(C)[C@H](NC(=O)c1n[nH]c2ccccc12)C(=O)O` gave Absolute peak area, HepaRG [250 μM] of 6.92E+06

Per the records, this compound ( `CCN(CC)C(=O)[C@@H]1C=C2c3cccc4[nH]cc(c34)C[C@H]2N(C)C1` ) has Absolute peak area, HepaRG [250 μM] equal to 5.95E+09

Briefly, Absolute peak area, HepaRG [250 μM] measured for CC(O)CCC(C(O)c1ccc(F)cc1)N1CCCC1 (stereo not shown) : 6.48E+06

response.value for `CCNC(=O)[C@@H]1C=C2c3cccc4[nH]cc(c34)C[C@H]2N(C)C1` (field: Absolute peak area, HepaRG [250 μM]) = 2.58E+08

Lab note: CCN(CCOC1OC(C(=O)O)C(O)C(O)C1O)C(=O)C1C=C2c3cccc4[nH]cc(c34)CC2N(C)C1 (stereo not shown) gave Absolute peak area, HepaRG [250 μM] of 1.07E+05

Sample CCCC(C(=O)c1ccc2c(c1)OCO2)N(O)CC (stereo not shown) ; Absolute peak area, HepaRG [250 μM] observed: 1.75E+06

Entry COc1ccc(CC(C)N)cc1OC (stereo not shown) ; Absolute peak area, HepaRG [250 μM] = 9.84E+07

Just so you know, measured Absolute peak area, HepaRG [250 μM] for CCCC(N)C(=O)c1ccc2c(c1)OCO2 (stereo not shown) came out at 2.21E+07

Lookup result for CCN(CC)C(=O)[C@@H]1C=C2c3cccc4c3C(O)(C[C@H]2N(C)C1)C(=O)N4 (stereo partly shown) [ML18, 2−oxo−3−hydroxy LSD] ; measured Absolute peak area, HepaRG [250 μM]: 3.67E+06

Form: compound = `COC(=O)[C@@H](NC(=O)c1n[nH]c2ccccc12)C(C)(C)C` ; Absolute peak area, HepaRG [250 μM] = 9.55E+06

response.value for `CCN(CC)C(=O)[C@@H]1C=C2c3cccc4[nH]cc(c34)C[C@H]2NC1` (field: Absolute peak area, HepaRG [250 μM]) = 3.37E+07

Query `CC(C)(C)[C@H](NC(=O)c1nn(CCCCF)c2ccccc12)C(=O)O[C@@H]1O[C@H](C(=O)O)[C@@H](O)[C@H](O)[C@H]1O` yields Absolute peak area, HepaRG [250 μM] of 3.25E+07
